- system.name: T1, recombinant human CD40-Fc (human, UniProt P25942 21-193)
- T1 construct: also called rh-CD40-Fc; CD40-hFc
- assay.notes: ELISA, CD40-Fc coated, VHH at 0.0026 nM
observed.property: OD450

pgDD40-SZ-3 (VHH, not shown: small tags and cut ends) VHH: QVQLVESGGGLVQAGDSLRLSCTASGRAFNTYTMAWFRQAPGKERDFVAAISRDGTITHYADSVKGRFTTTRDNAKNTMYLQMSSLKYDDTAVYYCAARRVGAVPERESAYEHWGQGTQVTVSS | 0.055
pgDD40-HZ-15 (VHH, not shown: small tags and cut ends) VHH: EVQLVESGGGLVQAGGSLRLSCAASGFTFDDYAIGWFRQAPGKEREGVSCLSKNVGNTYYADSVKGRFTISSDNAKNTVYLQMNSLKPEDTAVYYCAKGSGYGCYDFPRYAVWGQGTQVTVSS | 0.064
pgDD40-SZ-12 (VHH, not shown: small tags and cut ends) VHH: EVQLVESGGGLVQPGGSLKLSCAASGFAFSRYTMSWVRQAPGKGLEWVSGIDSGGGRTSYINSVKGRFTISRDNAKNTLYLQMNSLKPEDTAVYHCAQGGDSGSYYRTSWGQGTQVTVSS | 0.06
pgDD40-SZ-1 (VHH, not shown: small tags and cut ends) VHH: QVQLVESGGALAQPGGSLRLSCEASTNVRSVNAMAWYRQGPGKPRELVANITSDDATYYADSVKGRFTLSREGARNTVYLQMNSLKPEDTAVYQCNVHYTSWGGIRRDYWGRGTQVTVSS | 0.055
pgDD40-SZ-5 (VHH, not shown: small tags and cut ends) VHH: QVQLVESGGALAQPGGSLRLSCEASENVRSVNAMAWYRQGPGKPRELVANITSGDATYYADSVKGRFTLSREGARNTVYLQMNSLKPEDTAVYQCNVHYTSWGGIRRDYWGRGTQVTVSS | 0.059
pgDD40-SZ-7 (VHH, not shown: small tags and cut ends) VHH: QVQLVESGGALAQPGGSLRLSCEASATVRSVNAMAWYRQGPGKPRELVANITSGDTTYYADSVKGRFTLSREGARNTVYLQMNSLKPEDTAVYQCNIHYTSTGGIRRDYWGRGTQVTVSS | 0.056
pgDD40-HZ-24 (VHH, not shown: small tags and cut ends, also called pgDD40-HG-24) VHH: EVQLVESGGGSVQAGGSLRLSCAASLSTFSNYRMGWFRRAPGKERELVARIEPHGVVDYGDSVKGRFTISRDNAKNTVTVYLHMNSLKPEDTAVYYCNALRLISGRYDPLFSSWGQGTQVTVSS | 0.078
pgDD40-HZ-28 (VHH, not shown: small tags and cut ends) VHH: EVQLVESGGGLVQAGGSLRLSCVASERTFTPVRMGWFRQAPGKEREIVAAITWSDGSTYYADAVKGRFTISRDNALNAVYLQIDSLKPEDTAVYVCAASTSPYSTHLQFRYWGQGTQVTVSS | 0.061
pgDD40-HZ-47 (VHH, not shown: small tags and cut ends) VHH: QVQLVESGGGLVQPGGSMRLSCSASGFSISVYWMSWVRRAPGKGLEWVSNLGADGVTAQYSDSVKGRFTIARDTAKNTLYLQMNSLKPEDTAVYYCNAMTGMNPAEEEAYWGQGTQVTVSS | 0.06
pgDD40-SZ-2 (VHH, not shown: small tags and cut ends) VHH: EVQLVESGGALAQPGGSLRLSCEASATIRSVNAMAWYRQGPGKPREMVANITSGDTTYYADSVKGRFTLSREGARNTVYLQMNSLKPEDTAVYQCNIHYTSTGGIRRDYWGRGTQVTVSS | 0.058
